Form field: inhibition (one value per entry).
- TARGET: Serine/threonine-protein kinase PAK 6 (Homo sapiens);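 also: values are mean percent inhibition of PAK6 kinase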
- TEST PARAMETERS: at 1 µM
The response must be a number in % with no trailing unit.

Observe how each entry below is paired with its result.
CCCN1CCC=C(c2ccc(Nc3nc(Nc4ccccc4C(N)=O)c4cc[nH]c4n3)c(C)c2)C1    -5.41
COC(=O)Nc1nc2cc(Oc3cccc(NC(=O)Nc4cc(C(F)(F)F)ccc4F)c3)ccc2[nH]1    -6.76
CCn1c(-c2nonc2N)nc2c(N3CCCC3)nccc21    0.23
CC(=O)Nc1cccc(C#Cc2cncnc2Nc2ccc(OCc3cccc(F)c3)c(Cl)c2)n1    0.8
CS(=O)(=O)CCNCc1nc(-c2ccc3ncnc(Nc4ccc(F)c(Cl)c4)c3c2)cs1    0.67

The compound listed as O=C1NC(=O)C(N2CCc3ccccc32)=C1c1ccc(Cl)cc1 has a reported inhibition of -5.45

The compound listed as COc1cc(C=NNc2ncnc3c2cnn3-c2ccccc2)ccc1O has a reported inhibition of 2.62

The compound listed as O=C1Nc2ccc(C(=O)c3ccco3)cc2C1=Cc1cc(Cl)c(O)c(Cl)c1 has a reported inhibition of 0.19

The compound listed as COc1cc2ncn(-c3cc(O[C@@H](C)c4ccccc4Cl)c(C(N)=O)s3)c2cc1OC has a reported inhibition of -1.4

The compound listed as CS(=O)(=O)Nc1ccc(N/C=C2\C(=O)Nc3ccccc32)cc1 has a reported inhibition of -8.06

----------
Form field: inhibition (one value per entry).
- System: Tyrosine-protein kinase ABL1 (Homo sapiens), P00519 [Y253F]
- TEST PARAMETERS: at 0.1 µM
The response must be a number in % with no trailing unit.

COc1ccccc1Nc1ncc(-c2ccccc2)o1    4.71
CC1=C(C(=O)Nc2ccc3[nH]ncc3c2)C(c2ccc(F)cc2)NC(=O)N1 (stereo not given)    1.48
Cc1cccc(-c2n[nH]cc2-c2ccc3ncccc3n2)n1    3.03
COc1cc(C)c(NC(=O)CN(C)C)cc1Nc1nc(Nc2cccc(F)c2C(N)=O)c2cc[nH]c2n1    3.3
CCN1CCC(CC(=O)Nc2n[nH]c3nc(-c4cccs4)c(Br)cc23)CC1    -0.82

The compound listed as COc1cc2ncn(-c3cc(OCc4ccccc4C(F)(F)F)c(C(N)=O)s3)c2cc1OC has a reported inhibition of 5.48

The compound listed as NC(=O)c1cccc(Nc2nccc(Nc3cccc4[nH]ncc34)n2)c1 has a reported inhibition of 84.1

----------
- TARGET: Cyclin-dependent kinase 1 (Homo sapiens);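 also: mean percent inhibition of the CDK1/cyclin B complex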
- TEST PARAMETERS: at 1 µM
Form field: inhibition (one value per entry).
The response must be a number in % with no trailing unit.

COc1ccc(-c2nn3ncccc3c2-c2ccnc(Nc3ccc(Cl)c(C(F)(F)F)c3)n2)cc1    0.2
CC1=C(C(=O)Nc2ccc3[nH]ncc3c2)C(c2ccc(Cl)c(Cl)c2)CC(=O)N1 (stereo not given)    -1.08
CS(=O)(=O)CCNCc1ccc(-c2ccc3ncnc(Nc4ccc(OCc5cccc(F)c5)c(C(F)(F)F)c4)c3c2)o1    2
COc1cc2ncn(-c3cc(OCc4ccccc4Cl)c(C(N)=O)s3)c2cc1OC    6.22
[O-][S+]1CCN(Cc2ccc(-c3ccc4ncnc(Nc5ccc(OCc6ccccc6)c(F)c5)c4c3)o2)CC1    0.48
Cc1cccc(-c2n[nH]cc2-c2ccc3ncccc3n2)n1    2.06
O=C1NC(=O)C(c2ccccc2Cl)=C1Nc1cccc(O)c1    21
Fc1cccc(COc2ccc(Nc3ncnc4cc(-c5ccc[nH]5)sc34)cc2Cl)c1    1.88
Cc1nnc(-c2ccc(C)c(-c3ccc(C(=O)Nc4cccc(C#N)c4)cc3)c2)o1    1.11
CCN1CCC(CC(=O)Nc2n[nH]c3nc(-c4cccs4)c(Br)cc23)CC1    5

The compound listed as CCCN1CCC=C(c2ccc(Nc3nc(Nc4ccccc4C(N)=O)c4cc[nH]c4n3)c(C)c2)C1 has a reported inhibition of 7.53

The compound listed as O=C1NC(=O)C(c2ccc(Cl)cc2)=C1Nc1ccc(Cl)c(C(=O)O)c1 has a reported inhibition of 1.14

The compound listed as CCn1c(-c2nonc2N)nc2cnc(Oc3cccc(NC(=O)c4ccc(OCCN5CCOCC5)cc4)c3)cc21 has a reported inhibition of 3.69

The compound listed as Nc1nc(-c2ccccn2)c(-c2ccc3ncccc3n2)s1 has a reported inhibition of 3.13

The compound listed as CC(C)=Cc1cccc2c1/C(=N/Nc1ccc(S(N)(=O)=O)cc1)C(=O)N2 has a reported inhibition of 69.7

The compound listed as COc1cc2ncn(-c3cc(OCc4ccccc4C(F)(F)F)c(C(N)=O)s3)c2cc1OC has a reported inhibition of -1.4

The compound listed as Cc1cc(O)cc(C)c1/C=C/c1cncc(-c2nn[nH]n2)c1 has a reported inhibition of -3.31

The compound listed as Nc1ncnc2occ(-c3ccc(NC(=O)Nc4cc(C(F)(F)F)cc(C(F)(F)F)c4)cc3)c12 has a reported inhibition of 4.1

The compound listed as COc1cc(C=NNc2ncnc3c2cnn3-c2ccccc2)ccc1O has a reported inhibition of 35.8

The compound listed as Cc1ccc(NC(=O)c2ccnc(N3CCCC3)c2)cc1-c1ccc(C(=O)NCC2CC2)cc1 has a reported inhibition of 2.14

----------
- TARGET: Mitogen-activated protein kinase kinase kinase kinase 2 (Homo sapiens) (UniProt Q12851);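 also: reported value is a mean of MAP4K2 inhibition at 1 µM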
- Sequence (Q12851 whole entry): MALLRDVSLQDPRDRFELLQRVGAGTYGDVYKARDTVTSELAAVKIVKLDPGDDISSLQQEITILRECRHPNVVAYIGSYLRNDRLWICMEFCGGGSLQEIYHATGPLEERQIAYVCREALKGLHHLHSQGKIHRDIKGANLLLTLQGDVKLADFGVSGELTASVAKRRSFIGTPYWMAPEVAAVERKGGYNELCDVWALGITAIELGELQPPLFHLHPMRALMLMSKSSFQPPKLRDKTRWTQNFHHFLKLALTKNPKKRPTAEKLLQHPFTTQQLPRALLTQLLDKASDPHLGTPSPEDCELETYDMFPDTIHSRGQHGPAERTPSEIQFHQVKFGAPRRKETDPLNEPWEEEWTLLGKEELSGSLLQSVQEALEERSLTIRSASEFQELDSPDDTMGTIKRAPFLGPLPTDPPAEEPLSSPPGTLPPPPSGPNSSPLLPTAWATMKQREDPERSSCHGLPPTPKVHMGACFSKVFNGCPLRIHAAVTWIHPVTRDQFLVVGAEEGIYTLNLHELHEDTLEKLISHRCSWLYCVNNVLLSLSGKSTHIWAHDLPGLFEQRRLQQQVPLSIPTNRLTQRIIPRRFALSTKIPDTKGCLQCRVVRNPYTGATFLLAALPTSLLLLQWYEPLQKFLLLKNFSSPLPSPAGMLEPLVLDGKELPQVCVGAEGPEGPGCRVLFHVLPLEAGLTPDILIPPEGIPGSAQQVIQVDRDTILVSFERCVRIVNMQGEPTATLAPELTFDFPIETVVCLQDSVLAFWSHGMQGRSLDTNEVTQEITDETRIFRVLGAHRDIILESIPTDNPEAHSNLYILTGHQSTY
- TEST PARAMETERS: at 1 µM
VALUE KIND: inhibition

Observe how each entry below is paired with its result.
CS(=O)(=O)Nc1ccc(N/C=C2\C(=O)Nc3ccccc32)cc1    18.6%
NS(=O)(=O)c1ccc(N/N=C2\C(=O)Nc3ccc(C(=O)NCCc4c[nH]cn4)cc32)cc1    6.59%

Then there is this molecule:
The measured inhibition that COc1cccc(-n2ncc3c(N/N=C/c4cccc(F)c4)ncnc32)c1 showed for Mitogen-activated protein kinase kinase kinase kinase 2 (Homo sapiens) (UniProt Q12851) is 4.59%

----------
Form field: inhibition (one value per entry).
- TARGET: cAMP-dependent protein kinase catalytic subunit PRKX (Homo sapiens);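 also: values are mean percent inhibition of PRKX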
- TEST PARAMETERS: at 0.1 µM
The response must be a number in % with no trailing unit.

Cc1ccc(NC(=O)c2ccnc(N3CCCC3)c2)cc1-c1ccc(C(=O)NCC2CC2)cc1    1.47
COc1cccc(-n2ncc3c(N/N=C/c4cccc(F)c4)ncnc32)c1    1.69
CC(=O)Nc1cccc(C#Cc2cncnc2Nc2ccc(OCc3cccc(F)c3)c(Cl)c2)n1    1.81

The compound listed as CCCN1CCC=C(c2ccc(Nc3nc(Nc4ccccc4C(N)=O)c4cc[nH]c4n3)c(C)c2)C1 has a reported inhibition of 2.31

The compound listed as O=C1NC(=O)C(c2cccc(Cl)c2)=C1Nc1ccc(O)c(Cl)c1 has a reported inhibition of -0.43

----------
- TARGET: Tyrosine-protein kinase Tec (Homo sapiens) (UniProt P42680);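 also: each value is the mean of the inhibition measurements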
- Sequence (P42680 whole entry): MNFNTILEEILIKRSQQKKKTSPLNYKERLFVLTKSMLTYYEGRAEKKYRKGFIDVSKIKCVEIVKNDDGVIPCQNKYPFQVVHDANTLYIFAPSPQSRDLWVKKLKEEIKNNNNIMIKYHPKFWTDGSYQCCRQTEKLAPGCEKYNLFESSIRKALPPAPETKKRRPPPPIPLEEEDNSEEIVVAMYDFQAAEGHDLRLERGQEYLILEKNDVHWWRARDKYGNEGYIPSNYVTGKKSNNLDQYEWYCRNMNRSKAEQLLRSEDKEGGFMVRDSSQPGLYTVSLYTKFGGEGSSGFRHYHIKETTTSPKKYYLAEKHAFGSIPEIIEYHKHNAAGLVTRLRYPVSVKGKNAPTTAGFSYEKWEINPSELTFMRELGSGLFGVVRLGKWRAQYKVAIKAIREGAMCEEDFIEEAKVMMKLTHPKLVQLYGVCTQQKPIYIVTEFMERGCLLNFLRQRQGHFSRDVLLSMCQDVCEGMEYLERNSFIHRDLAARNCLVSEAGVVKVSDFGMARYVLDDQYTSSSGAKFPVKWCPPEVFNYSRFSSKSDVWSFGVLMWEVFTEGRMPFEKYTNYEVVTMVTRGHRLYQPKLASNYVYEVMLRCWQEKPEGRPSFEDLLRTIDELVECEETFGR
- TEST PARAMETERS: at 1 µM
VALUE KIND: inhibition (%)
The response must be a number in % with no trailing unit.

NCc1ccc(-c2nc(-c3ccc(Cl)c(O)c3)c(-c3ccncc3)[nH]2)cc1    33
Nc1nc(-c2ccc3c(c2)C(=Cc2cc(Br)c(O)c(Br)c2)C(=O)N3)cs1    -1
Nc1ncnc2occ(-c3ccc(NC(=O)Nc4cccc(C(F)(F)F)c4)cc3)c12    5.89
CC(C)=Cc1cccc2c1/C(=N/Nc1ccc(S(N)(=O)=O)cc1)C(=O)N2    10.1
O=C1NC(=O)C(c2ccccc2Cl)=C1Nc1cccc(O)c1    4.55

The measured inhibition that Cc1ccc(C(=O)NC2CCCCC2)cc1-c1ccc(C(=O)NCC2CC2)cc1 showed for Tyrosine-protein kinase Tec (Homo sapiens) (UniProt P42680) is 5.66

----------
- TARGET: Non-receptor tyrosine-protein kinase TNK1 (Homo sapiens);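 also: values are averaged percent inhibition of TNK1, compounds from the GSK published kinase inhibitor set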
- TEST PARAMETERS: at 1 µM
VALUE KIND: inhibition (%)
The response must be a number in % with no trailing unit.

CCn1c(-c2nonc2N)nc2c(C#CC(C)(C)O)nc(CN3CCCC3)cc21    -4.05
O=C1NC(=O)C(c2cccc(Cl)c2)=C1Nc1ccc(O)c(Cl)c1    8.8
COc1cccc(-n2ncc3c(N/N=C/c4cccc(F)c4)ncnc32)c1    2.44
Cc1cc(O)cc(C)c1/C=C/c1cncc(-c2nn[nH]n2)c1    84.2
COc1cc(C)c(NC(=O)CN(C)C)cc1Nc1nc(Nc2cccc(F)c2C(N)=O)c2cc[nH]c2n1    73.4
CC(=O)Nc1cccc(C#Cc2cncnc2Nc2ccc(OCc3cccc(F)c3)c(Cl)c2)n1    13.1
COc1ccc(-c2ccncc2)cc1C(N)=O    5.16
COc1ccccc1Nc1ncc(-c2ccccc2)o1    13.8

The compound listed as O=C(Nc1n[nH]c2nc(-c3ccco3)c(Br)cc12)C1CC1 has a reported inhibition of -0.4

The compound listed as O=C1NC(=O)C(c2ccc(Cl)cc2)=C1Nc1ccc(Cl)c(C(=O)O)c1 has a reported inhibition of 0.53

The compound listed as Cc1cccc(-c2n[nH]cc2-c2ccc3ncccc3n2)n1 has a reported inhibition of 0.33

The compound listed as Cc1nn(C)c2cc(N(C)c3ccnc(Nc4cccc(S(N)(=O)=O)c4)n3)ccc12 has a reported inhibition of 80.7

The compound listed as COc1ccc(COc2ccc(Cc3cnc(N)nc3N)cc2OC)cc1 has a reported inhibition of -8.3

The compound listed as Fc1cccc(COc2ccc(Nc3ncnc4cc(-c5ccc[nH]5)sc34)cc2Cl)c1 has a reported inhibition of 1.7

The compound listed as COC(=O)Nc1nc2cc(Oc3cccc(NC(=O)Nc4cc(C(F)(F)F)ccc4F)c3)ccc2[nH]1 has a reported inhibition of -3.58

The compound listed as c1cnn2ncc(-c3ccnc(Nc4ccc5c(c4)OCCO5)n3)c2c1 has a reported inhibition of 64.5

The compound listed as NCc1ccc(-c2nc(-c3ccc(Cl)c(O)c3)c(-c3ccncc3)[nH]2)cc1 has a reported inhibition of 1.42

The compound listed as COc1ccc2cc(-c3c(-c4ccncc4)nc(-c4ccc([S+](C)[O-])cc4)n3C)ccc2c1 (stereo not given) has a reported inhibition of 8.26

The compound listed as Cn1cc(C=C2C(=O)Nc3cccnc32)c2ccccc21 has a reported inhibition of 9.9

The compound listed as O=C1Nc2ccc(C(=O)c3ccco3)cc2C1=Cc1cc(Cl)c(O)c(Cl)c1 has a reported inhibition of 85.3

The compound listed as CCn1c(-c2nonc2N)nc2cnc(Oc3cccc(NC(=O)c4ccc(OCCN5CCOCC5)cc4)c3)cc21 has a reported inhibition of 5.9

The compound listed as CS(=O)(=O)Nc1ccc(N/C=C2\C(=O)Nc3ccccc32)cc1 has a reported inhibition of 6.96

The compound listed as CN(C)c1cc2c(Nc3ccc4nc(Cc5ccccc5)[nH]c4c3)ncnc2cn1 has a reported inhibition of 21

The compound listed as CCn1c(-c2nonc2N)nc2cncc(C(=O)N3CCNCC3)c21 has a reported inhibition of 5.69
